tested on: Staphylococcus aureus; assay: In vitro antimicrobial activity against Staphylococcus aureus 285; assay type: functional
# log10(MIC) annotations
# log10 transformed; quantity=MIC; unit=mg/L

1) CO/N=C(/C(=O)NC1C(=O)N2C(C(=O)[O-])=C(C[n+]3cccc4c3CCC4)CSC12)c1csc(N)n1 (configuration not stated): -0.11
2) CO/N=C(/C(=O)N[C@@H]1C(=O)N2C(C(=O)[O-])=C(C[n+]3cccc(-c4cc(N)[nH]n4)c3)CS[C@H]12)c1csc(N)n1: -0.11
3) CO/N=C(/C(=O)N[C@@H]1C(=O)N2C(C(=O)[O-])=C(C[n+]3cccc(-c4cc(C(N)=O)nn4CCO)c3)CS[C@H]12)c1csc(N)n1: 0.49
4) CO/N=C(/C(=O)N[C@@H]1C(=O)N2C(C(=O)[O-])=C(C[n+]3cccc(-c4cc(CO)nn4C)c3)CS[C@H]12)c1csc(N)n1: 0.49
5) CO/N=C(/C(=O)N[C@@H]1C(=O)N2C(C(=O)[O-])=C(C[n+]3cccc(-c4cc(CO)nn4CCO)c3)CS[C@H]12)c1csc(N)n1: 0.80

(Q) Recorded log10(MIC) of `CC(C)(O/N=C(\C(=O)N[C@@H]1C(=O)N2C(C(=O)[O-])=C(C[n+]3ccccc3)CS[C@H]12)c1csc(N)n1)C(=O)O` , please.
(A) 1.10

(Q) Recorded log10(MIC) of `CO/N=C(/C(=O)N[C@@H]1C(=O)N2C(C(=O)[O-])=C(C[n+]3cccc(-c4cc(C(N)=O)[nH]n4)c3)CS[C@H]12)c1csc(N)n1` , please.
(A) 0.19
